Target: gp140CN54 (subtype B'/C), gp140 envelope glycoprotein from the HIV-1 group M CRF07-B/C-clade isolate 97CN54 (HIV-1)
Test: binding of purified VHH to gp140 CN54 (method not given)
quantity-name: K50 (50% binding concentration; column head reads KD) (µg/mL)
Your answer is read as µg/mL, so omit the unit and give the number.

Solved entries (count: 2):
L8Cj3 Mutant 5 (VHH) VHH: EVQLVESGGGLVQAGGFLRLSCELRGSIFNQYAMAWFRQAPGKEREFVAGMGAVPHYGEFVKGRFTISRDNAKSTVYLQMSSLKPEDTAVYFCARSKSTYISYNSNGYDYWGRGTQVTVSS : 1.07
L8Cj3 Mutant 2 (VHH) VHH: EVQLVESGGGLVQAGGFLRLSCELRGSIFSQYAMAWFRQAPGKEREFVAGMGAVPHYGEFVKGRFTISRDNAKSTVYLQMSSLKPEDTAIYFCARSKSTYISYNSNGYDYWGRGTQVTVSS : 0.18

Sample L8Cj3 Mutant 8 (VHH) VHH: EVQLVESGGGLVQAGGFLRLSCELRGSIFNQYAMAWFRQAPGKEREFVAGMGAVPHYGEFVKGRFTISRDNAKSTVYLQMSSLKPEDTAIYFCARSKNTYISYNSNGYDYWGRGTQVTVSS ; K50 (50% binding concentration; column head reads KD) observed: 0.36
